Biological target: T1, recombinant human SOST (rhSOST) (human, UniProt Q9BQB4 24-213)
T1 construct: Treated as one molecule; also called recombinant human SOST protein; human sclerostin
T1 sequence: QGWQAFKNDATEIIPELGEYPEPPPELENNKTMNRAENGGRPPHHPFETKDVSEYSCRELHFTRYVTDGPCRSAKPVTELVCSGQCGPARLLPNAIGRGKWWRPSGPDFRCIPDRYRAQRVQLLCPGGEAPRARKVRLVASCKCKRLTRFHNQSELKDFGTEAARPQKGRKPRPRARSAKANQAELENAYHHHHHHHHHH
Assay: SPR Biacore T200, IgG captured via anti-human Fc, rhSOST analyte, 37 C
Reported koff values for a set of binders
Number in s⁻¹, nothing else.

Could you tell me which koff is on file for DM3 (antibody, V domains shown, also called mH10/mL15) VH: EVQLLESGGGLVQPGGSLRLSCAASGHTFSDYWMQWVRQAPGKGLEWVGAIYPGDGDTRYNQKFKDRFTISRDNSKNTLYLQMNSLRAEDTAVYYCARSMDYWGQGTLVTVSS VL: DIVMTQSPDSLAVSLGERATINCRASKTVDSYGNSFMHWYQQKPGQPPKLLIYHSSNLESGVPDRFSGSGSGTDFTLTISSLQAEDVAVYYCLQTIEHPYTFGQGTKLEIK ?
0.00285

Subsequent entry: DM25 (antibody, V domains shown, also called mH4/wt) VH: EVQLLESGGGLVQPGGSLRLSCAASGHTFTDYWMQWVRQAPGKGLEWVGAIYPGDGDTRYNQKFKDRFTISRDNSKNTLYLQMNSLRAEDTAVYYCARSMDYWGQGTLVTVSS VL: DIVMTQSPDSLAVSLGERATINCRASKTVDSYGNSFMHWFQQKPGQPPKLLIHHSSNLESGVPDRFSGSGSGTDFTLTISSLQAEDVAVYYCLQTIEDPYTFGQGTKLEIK
0.000101

Subsequent entry: DM5 (antibody, V domains shown, also called mH10/mL16) VH: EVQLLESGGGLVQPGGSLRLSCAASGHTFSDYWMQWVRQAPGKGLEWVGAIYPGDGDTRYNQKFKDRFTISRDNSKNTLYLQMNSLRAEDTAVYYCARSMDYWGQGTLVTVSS VL: DIVMTQSPDSLAVSLGERATINCRASKTVDSYGNSFMHWFQQKPGQPPKLLIYHSSNLESGVPDRFSGSGSGTDFTLTISSLQAEDVAVYYCLQTIEFPYTFGQGTKLEIK
0.000754

Subsequent entry: DM33 (antibody, V domains shown, also called mH11/mL15) VH: EVQLLESGGGLVQPGGSLRLSCAASGFTFSDYWMQWVRQAPGKGLEWVGAIYPGDGDTRYNQKFKDRFTISRDNSKNTLYLQMNSLRAEDTAVYYCARSMDYWGQGTLVTVSS VL: DIVMTQSPDSLAVSLGERATINCRASKTVDSYGNSFMHWYQQKPGQPPKLLIYHSSNLESGVPDRFSGSGSGTDFTLTISSLQAEDVAVYYCLQTIEHPYTFGQGTKLEIK
0.000563

Continuing:
Could you tell me which koff is on file for DP1 (antibody, human IgG2, kappa, V domains shown, also called pH1/pL1) VH: EVQLVESGGGLVQPGGSLRLSCAASGFTFSIYAMSWVRQAPGKGLEWVALISGGDTYTYYADSVKGRFTISRDNAKNSLYLQMNSLRAEDTAVYYCARHGYDDFDYWGQGTLVTVSS VL: DVVMTQSPLSLPVTLGQPASISCRSSQSLLDNDGETYLNWFQQRPGQSPRRLIYQVSKLDSGVPDRFSGSGSGTDFTLKISRVEAEDVGVYYCWQGTHFPHTFGGGTKVEIKR ?
0.00667

Subsequent entry: DM7 (antibody, V domains shown, also called mH11/mL14) VH: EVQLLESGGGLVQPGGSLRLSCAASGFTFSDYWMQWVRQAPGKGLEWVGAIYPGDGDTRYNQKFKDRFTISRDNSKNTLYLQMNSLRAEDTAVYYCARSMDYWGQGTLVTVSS VL: DIVMTQSPDSLAVSLGERATINCRASKTVDSYGNSFMHWFQQKPGQPPKLLIYHSSNLESGVPDRFSGSGSGTDFTLTISSLQAEDVAVYYCLQTIEHPYTFGQGTKLEIK
0.00402

Subsequent entry: DM1 (antibody, V domains shown, also called mH10/mL4) VH: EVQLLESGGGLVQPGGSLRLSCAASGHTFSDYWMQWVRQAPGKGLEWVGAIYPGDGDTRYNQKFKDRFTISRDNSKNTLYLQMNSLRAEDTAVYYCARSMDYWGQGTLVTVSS VL: DIVMTQSPDSLAVSLGERATINCRASKTVDSYGNSFMHWFQQKPGQPPKLLIHHSSNLESGVPDRFSGSGSGTDFTLTISSLQAEDVAVYYCLQTIEHPYTFGQGTKLEIK
0.000741

Subsequent entry: DM19 (antibody, V domains shown, also called wt/mL10) VH: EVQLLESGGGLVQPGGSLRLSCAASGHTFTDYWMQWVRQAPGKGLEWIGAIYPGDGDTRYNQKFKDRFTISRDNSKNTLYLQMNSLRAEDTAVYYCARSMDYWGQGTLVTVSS VL: DIVMTQSPDSLAVSLGERATINCRASKTVDSYGNSFMHWFQQKPGQPPKLLIHHSSNLESGVPDRFSGSGSGTDFTLTISSLQAEDVAVYYCLQTIEFHYTFGQGTKLEIK
0.000388

Subsequent entry: DM29 (antibody, V domains shown, also called mH10/mL2) VH: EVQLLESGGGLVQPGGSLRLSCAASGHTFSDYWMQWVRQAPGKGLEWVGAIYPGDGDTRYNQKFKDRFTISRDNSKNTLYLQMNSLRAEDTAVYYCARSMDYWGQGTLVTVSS VL: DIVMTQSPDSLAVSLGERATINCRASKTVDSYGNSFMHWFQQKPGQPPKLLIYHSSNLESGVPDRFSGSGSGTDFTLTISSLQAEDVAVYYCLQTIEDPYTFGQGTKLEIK
0.000101

Subsequent entry: DM23 (antibody, V domains shown, also called mH3/wt) VH: EVQLLESGGGLVQPGGSLRLSCAASGFTFSDYWMQWVRQAPGKGLEWIGAIYPGDGDTRYNQKFKDRFTISRDNSKNTLYLQMNSLRAEDTAVYYCARSMDYWGQGTLVTVSS VL: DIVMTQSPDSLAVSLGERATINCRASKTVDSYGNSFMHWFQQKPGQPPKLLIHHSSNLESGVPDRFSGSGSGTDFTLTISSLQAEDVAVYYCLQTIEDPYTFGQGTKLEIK
0.000134
